Answer each item with its documented iScore.
# tested.target: T1, MHC class I molecule A*0201 (biotin (bound to streptavidin-coated plate))
# T1 construct: also called A2; HLA-A2
# protocol: iTopia iScore
Reply with the value as a number alone.

Given the binder QCPALCECS [5T4 9-mer peptide 31 QCPALCECS] , what is its reported iScore?
0

And the next one, PLADLSPFA [5T4 9-mer peptide 77 PLADLSPFA] ?
0.556

And the next one, CSRGPAAGD [5T4 9-mer peptide 3 CSRGPAAGD] ?
0

And the next one, RALQGLRRL [5T4 9-mer peptide 104 RALQGLRRL] ?
0.168

And the next one, LSGSRLDEV [5T4 9-mer peptide 63 LSGSRLDEV] ?
0.075

And the next one, LAVLPAGAF [5T4 9-mer peptide 52 LAVLPAGAF] ?
0.074

And the next one, VPTDLPAYV [5T4 9-mer peptide 43 VPTDLPAYV] ?
0.059

And the next one, VRNLFLTGN [5T4 9-mer peptide 47 VRNLFLTGN] ?
0

And the next one, APSPLVELI [5T4 9-mer peptide 86 APSPLVELI] ?
0

And the next one, TGNQLAVLP [5T4 9-mer peptide 50 TGNQLAVLP] ?
0.044

And the next one, RHLDLSNNS [5T4 9-mer peptide 119 RHLDLSNNS] ?
0.029

And the next one, LNLSGSRLD [5T4 9-mer peptide 62 LNLSGSRLD] ?
0

And the next one, LVELILNHI [5T4 9-mer peptide 88 LVELILNHI] ?
0.109

And the next one, LPRDVLAQL [5T4 9-mer peptide 113 LPRDVLAQL] ?
0

And the next one, LSHNPLADL [5T4 9-mer peptide 75 LSHNPLADL] ?
0.095

And the next one, PAAGDGRLR [5T4 9-mer peptide 5 PAAGDGRLR] ?
0

Where do these numbers come from? They come from patent US20090280138A1.
